Assay: yeast display, Sf9 membrane polyspecificity reagent, FACS + sequencing; frameworks hold sequencing errors
Quantity Measured: polyreactivity (PSR sort gate)

QVQLVESGGGLDQAGGSLRLSCAASASTFYANAMGWYRQSPGKEREFVAAIDWSGATTYYADSVKGRFTISRDNAMNTVYLQMNSLKPEDTAVYYCAAEVYFLATGTWYDYWGLGTQVTVSS ... high polyreactivity
QVQLVESGGGLVQAGGSLRLSCAASGSTFATNTLGWYRQAPGKERELVAAISRGTSTKYADSVKGRFTISRDNAKNTVYLQMTCLKPEDTAVSYCNAVSRDKSLYDYWGQGTQVTVSS ... high polyreactivity

###

Assay: yeast display, Sf9 membrane polyspecificity reagent, FACS + sequencing; frameworks hold sequencing errors
Quantity Measured: polyreactivity (PSR sort gate)

QVQLVESGGGLVQAGGSLRLTCAASGSTFSDYAMGWNRQAHGKERELVAGITGGGGTYYADSVKGRFTISRDNAKNTVYLQMNSLKPEDTALYYCAAGRRHGLGYWGQGTLVTVSS ... low polyreactivity
QVQLVESGGGLVQAGGSLRLSCAASGRIFYDYAMGGSRQAPGKERELVAAISKGGGSTYYADSVKGRFTISRDNAKNTVYLQMYSLKPEDTAVYYCAASSSLTTDTLYDYWGQGTQVTVSS ... low polyreactivity
HVQLVESGGGLVQAGRSLRLSCAASGGIFYRYAMGWYRQAPGKEWELVATISRRGGRTYYADSVKGRFTISRDYAKNTVYLQMYSLKPEDTAVDYCAADEWQSGHGLEDDYWGQGTQVTVSS ... high polyreactivity
QVQLVESGGGLVQAGGSLRLSCAASGRIFGYYAMGWYRQAPGKERELVAAITWSGGSTYYADSVKGRFTISRDNAKNTVYLQMNSLKPEDNAVYYCAAEKRYRKAFDYWGQGTQVTVSS ... high polyreactivity

Give polyreactivity (PSR sort gate) for each listed item.
1. QVQLVESGGGLFQAGGSLRLSCAASGRTFISNPMGWYRQAPGKVWEMVASITSGGSTNYADSVKGRFTISRDNAKNSVYVHMYSQNREDTAVYYCAAEGLVVGWTEEDYWGQGTQVTVSS
2. QVQLVESGAGLVQAGGSLRISCAASGRTFFPNAMGWYRQAPGKERELFAAISSGGGGTYYADSVKGRFTISRDNAKNTVYLQMNSLKPEDTAVYYCAARNSKVEEDGNYWGQGTQVTVSS
3. QVQLVESGGGLVQAGGSLRLSCAASGSIVNIYAMGWYRQAPGKERQLVARISCSGVSTYYADSVKGRLTISRDHAKNTVYLQMNSLKREDTAVYDCAARYGRVYYYGWYWLYYWGQGTQVTVSS
4. QVQLVESGGGLVQAGGSLRLSCAASGSTFIPNTMGWYRQEPGKERELVAAISRRGGSTNYADSVKGRFTISRDNAKYTVYLQMNSLKPEDTAVYYCAAVSPRRYRYDYWGQGTQVTVSS
5. QVQLVESGGGLVQAGGSLRLSCAASGFTFLNNTMGWYRQAPGKERELVAAITSSGDRTYYADSVKGRFTISRDNAKNTVYLQMNSLKPEDTAVYYCAADWAYYVASYLYYTFDYWGQGTQVTVSS
6. QVQLVESGGGLVQAGGSLRLSCAASGSTFQWYAMGWYRQAPGKERELVAAISNGVSTNYADSVKGRFTISRDNAKNTVYLHMNSLKPEDTAVYYCAADAYPYYQSYYPFEYLGQGTQVTVSS
7. QVQLVESGGGLVQAGGSLRLSCAASGVTFHGYTMGWYRQAPGKERELVAAITSGGGTNYADSVKGRFTISRDNAKNTVYLQMNSLKPEDTAVYYCAAGFHKRVTPEILYDYWGQGTQVTVSS

Given back:
low polyreactivity
low polyreactivity
high polyreactivity
low polyreactivity
low polyreactivity
low polyreactivity
low polyreactivity
